Data credit: PubChem BioAssay (NCI)

# Test system: SF-539 CNS
# measurement.notes: NCI tumour cell line growth inhibition, 48 h
parameter: GI50

[
  {
    "compound.structure.string": "CSc1ccc2c(c1)C(=O)c1c-2n(CCCBr)c(=O)c2cc([N+](=O)[O-])ccc12",
    "GI50": "4590 nM"
  }
]

Give GI50 for each of the items listed below.
1. C1=C\COCc2cc(ccc2OCCN2CCCC2)Nc2nccc(n2)-c2cccc(c2)COC/1
2. CCCCCOc1ccc(/C=N/Nc2cc(C)nc3ccc(Br)cc23)cc1
3. CC(=O)Oc1ccccc1C(=O)Nc1ncc([N+](=O)[O-])s1
4. C=C1C(=O)O[C@H]2[C@H]1CC/C(COC(=O)/C=C\C(=O)NCc1ccc(Cn3c(=O)sn(CCCC)c3=O)cc1)=C\CC[C@@]1(C)O[C@@H]21
5. O=C(Nc1ccc(-n2ccc3c(NC(=O)c4ccccc4)nccc32)cc1)Nc1ccc(Cl)c(Cl)c1
6. Cc1cc(C)c(/C=C2\C(=O)Nc3ccc(NC(=O)CCCCCCC(=O)NO)cc32)[nH]1
7. COc1ccc(CCNC(=O)c2ccc(NC3=C(Cl)C(=O)N(Cc4ccccc4)C3=O)cc2)cc1OC
8. CC(=O)[O][Ga]([Br])[O]C(C)=O

Response line:
1. 3110 nM
2. 1760 nM
3. 2900 nM
4. 1180 nM
5. 557 nM
6. 521 nM
7. 23900 nM
8. > 100000 nM

###

# System: HCT-15 colon
# measurement.notes: NCI tumour cell line growth inhibition, 48 h
I'd be grateful if you could share measured TGI for these entries.

Solved entries:
[
  {
    "compound": "Cc1nn(C(=O)Cc2ccccc2)c2c1C(c1ccc(Cl)cc1)SC(N)=N2 (stereo not given)",
    "assay.system": "HCT-15 colon",
    "parameter": "TGI",
    "recorded.result": "> 100 µM"
  },
  {
    "compound": "C/C(=N/NC(=S)Nc1ccc(Cl)cc1)c1cccc(/C(C)=N\\NC(=S)Nc2ccc(Cl)cc2)n1",
    "assay.system": "HCT-15 colon",
    "parameter": "TGI",
    "recorded.result": "> 100 µM"
  }
]

Give TGI for each of the items listed below.
1. Cc1ccc(NC(=O)CSc2nnc(-c3ccc(N=Cc4ccc(Cl)cc4)cc3)o2)cc1
2. Cc1ccc(C)c(N=C2NC(=O)C(CC(=O)Nc3ccc(Cl)cc3Cl)S2)c1 (stereo not given)
3. COc1ccc(NC(=O)N(C)CC2(O)CCC(C(C)(C)C)CC2)cc1 (stereo not given)

Response line:
1: > 100 µM; 2: > 100 µM; 3: > 100 µM

###

I'd be grateful if you could share measured TGI for these entries.
# Test system: HS 578T breast
# measurement.notes: NCI tumour cell line growth inhibition, 48 h

Solved entries:
[
  {
    "compound": "O=CN1CCN(CC(O)CN2CCCCC2)CC1 (centres undefined)",
    "parameter": "TGI",
    "recorded.result": "> 100 µM"
  },
  {
    "compound": "O=C(Nc1ccc(F)cc1)c1cc(S(=O)(=O)Nc2nc3ccccc3o2)c(SCc2ccccc2)cc1Cl",
    "parameter": "TGI",
    "recorded.result": "44.5 µM"
  },
  {
    "compound": "S=C1SSC2N=CC=CC12 (centres undefined)",
    "parameter": "TGI",
    "recorded.result": "> 100 µM"
  }
]

The recorded TGI for entry "COc1cc2c(c(OC)c1OC)-c1ncc3cc4c(cc3c1C2)OCO4" equals 49.6 µM

###

# Test system: SK-MEL-28 melanoma
# measurement.notes: NCI tumour cell line growth inhibition, 48 h
parameter: TGI

Solved entries:
[
  {
    "compound": "C=C1C(=O)OC2CC(C)C3(O)CCC(=O)C3(C)CC12 (stereo unspecified)",
    "TGI": "> 100 µM"
  },
  {
    "compound": "CCCO/S(=N\\S(=O)(=O)c1ccccc1)c1ccccc1[N+](=O)[O-] (stereo unspecified)",
    "TGI": "> 100 µM"
  },
  {
    "compound": "C#CC(C)(C)OC(=O)C(=[N+]=[N-])C(C)=O",
    "TGI": "> 10 µM"
  },
  {
    "compound": "Cc1nc2sc3c(c2c(=O)[nH]1)CCCC3",
    "TGI": "> 100 µM"
  }
]

Give TGI for each of the items listed below.
1. Cc1ccc(S(=O)(=O)c2ccc(N)cc2)cc1
2. CC(=O)O[C@H]1CCC2[C@@H]3CCC4Nc5oncc5C[C@]4(C)C3CC[C@@]21C (stereo partly specified)

Response line:
1: > 100 µM; 2: > 10 µM

###

I'd be grateful if you could share measured TGI for these entries.
# Tested on: SK-MEL-2 melanoma
# measurement.notes: NCI tumour cell line growth inhibition, 48 h

Solved entries:
[
  {
    "compound": "Cc1cc(NS(=O)(=O)c2ccc(Nc3c4ccccc4nc4c(C(=O)N5CCN(CCO)CC5)ccc(Cl)c34)cc2)no1",
    "parameter": "TGI",
    "recorded.result": "> 100 µM"
  },
  {
    "compound": "Cc1c(/C=N/NC(=O)c2ccc(Cl)cc2)c(=O)n(-c2ccccc2)n1C",
    "parameter": "TGI",
    "recorded.result": "> 100 µM"
  },
  {
    "compound": "c1ccc([P+](CC[P+](c2ccccc2)(c2ccccc2)c2ccccc2)(c2ccccc2)c2ccccc2)cc1",
    "parameter": "TGI",
    "recorded.result": "43.6 µM"
  },
  {
    "compound": "CC(C)N(CCn1c2c3ccccc3ccc2c2oc(=O)c3ccccc3c21)C(C)C",
    "parameter": "TGI",
    "recorded.result": "> 100 µM"
  },
  {
    "compound": "C=CC1C(OC2OC(CO)C(O)C(O)C2O)OC=C(C(=O)OC)C1CC1CC(=O)CC(CCc2ccc(O)cc2)O1 (centres undefined)",
    "parameter": "TGI",
    "recorded.result": "> 100 µM"
  },
  {
    "compound": "O=C(Nc1ccc(-n2ccc3c(NC(=O)c4ccccc4)nccc32)cc1)Nc1ccc(Cl)c(Cl)c1",
    "parameter": "TGI",
    "recorded.result": "4.87 µM"
  },
  {
    "compound": "Cn1cc(C2=C(c3cccc(Br)c3)C(=O)NC2=O)c2ccccc21",
    "parameter": "TGI",
    "recorded.result": "> 21.6 µM"
  },
  {
    "compound": "CCOC(=O)CO/N=C1/C(c2c(O)[nH]c3ccccc23)=Nc2ccccc21",
    "parameter": "TGI",
    "recorded.result": "> 100 µM"
  }
]

Moving on to another compound below.
The recorded TGI for entry "O=C(CCc1cc(O)ccc1O)OCCc1ccccc1" equals > 100 µM

###

# Test system: LOX IMVI melanoma
# measurement.notes: NCI tumour cell line growth inhibition, 48 h; in the data active = GI50 below about 0.43 µM; inactive = the rest
Choose one outcome from this list and give only that: active, inactive

The examples below pair each entry with its known result.
[
  {
    "compound.structure.string": "COc1cc2c3c(n(CCCOC(=O)C(F)(F)F)c(=O)c2cc1OC)-c1cc2c(cc1C3=O)OCO2",
    "class.assignment": "active"
  },
  {
    "compound.structure.string": "O=S(=O)(Nc1ccc(F)cc1F)c1ccc(-c2cnc(C3CC3)o2)cc1",
    "class.assignment": "inactive"
  },
  {
    "compound.structure.string": "Cc1cc(C)c(NC(=O)c2sc3nc4c(cc3c2N)CN(Cc2ccccc2)CC4)c(C)c1",
    "class.assignment": "inactive"
  },
  {
    "compound.structure.string": "C=C1C(=O)O[C@H]2[C@H]1CC/C(COC(=O)/C=C\\C(=O)NCc1ccc(Cn3c(=O)sn(CCCC)c3=O)cc1)=C\\CC[C@@]1(C)O[C@@H]21",
    "class.assignment": "active"
  }
]

Prompt line: In this assay, the call recorded for "CC(=O)[O][Ga]([Br])[O]C(C)=O" was what?
Response line: inactive

Prompt line: In this assay, the call recorded for "COc1ccc(-n2c(C)cc(-c3ccccc3)c2C)cc1" was what?
Response line: inactive

Prompt line: In this assay, the call recorded for "Cc1[nH]c(/C=C2\C(=O)Nc3ccccc32)c(C)c1CCC(=O)O" was what?
Response line: inactive

###

I'd be grateful if you could share measured TGI for these entries.
# Tested on: PC-3 prostate
# measurement.notes: NCI tumour cell line growth inhibition, 48 h

Solved entries:
[
  {
    "molecule": "CCN1C(=O)N(CC)C2C1NN=c1s/c(=C3\\C(=O)N(CC(C)(C)C)c4ccccc43)c(=O)n12 (stereo not given)",
    "TGI": "31.5 µM"
  },
  {
    "molecule": "O=C1/C(=C/c2cccc(Br)c2)Cc2ccccc21",
    "TGI": "> 100 µM"
  },
  {
    "molecule": "CC(=O)Oc1ccc2c(c1)c1c(=O)oc(C)nc1n2Cc1ccccc1",
    "TGI": "> 100 µM"
  },
  {
    "molecule": "COc1ccc(CCNC(=O)c2ccc(NC3=C(Cl)C(=O)N(Cc4ccccc4)C3=O)cc2)cc1OC",
    "TGI": "27.8 µM"
  }
]

Moving on to another molecule below.
The recorded TGI for entry "NC(=O)c1cc(S(=O)(=O)Nc2nnc(-c3ccccc3)c(-c3ccccc3)n2)c(SCc2ccccc2)cc1Cl" equals > 100 µM
